Origin of measurements: patent US20220259289A1

# Tgt: T1, human serum albumin (human, UniProt P02768 25-609)
# T1 construct: Negative control antigen of the screening ELISA; also called HSA
# Experiment Notes: ELISA, bacterial lysate on plate-bound antigen, luminescence
Reported Metric: ELISA HSA (RLU)
Please reply with the bare figure in RLU and do not write the unit itself.

In the examples that follow, each entry is paired with its recorded ELISA HSA (RLU).
1. ISOP120AR5P1C5 (designed binder, not shown: small tags and cut ends, FN3 domain (Centyrin); tested as E. coli lysate) LPAPKNLVVSRVTEDSARLSWTLPNIHFDSFLIQYQESEKVGEAIVLTVPGSERSYDLTGLKPGTEYTVSIYGVGRHYTVYDSNPLSAIFTT	160
2. ISOP120HR5P1F9 (designed binder, not shown: small tags and cut ends, FN3 domain (Centyrin); tested as E. coli lysate) LPAPKNLVVSRVTEDSARLSWTAPDAAFDSFYIYYREHWTIGEAIVLTVPGSERSYDLTGLKPGTEYLVTIYGVKGGAYSNPLSAIFTT	400

Enquiry: What does the data say about its ELISA HSA (RLU)? Entry: ISOP120AR5P1D9 (designed binder, not shown: small tags and cut ends, FN3 domain (Centyrin); tested as E. coli lysate) LPAPKNLVVSRVTEDSARLSWNTDWVHTFDSFLIQYQESEKVGEAIVLTVPGSERSYDLTGLKPGTEYTVSIYGVGRHYTVYDSNPLSAIFTT
Return: 320

Enquiry: What does the data say about its ELISA HSA (RLU)? Entry: ISOP120BR5P1E2 (designed binder, not shown: small tags and cut ends, FN3 domain (Centyrin); tested as E. coli lysate) LPAPKNLVVSRVTEDSARLSWAQELDHFDSFLIQYQESEKVGEAIVLTVPGSERSYDLTGLKPGTEYTVSIYGVYWTWWVRWNSNPLSAIFTT
Return: 4960

Enquiry: What does the data say about its ELISA HSA (RLU)? Entry: ISOP120ER5P1B4 (designed binder, not shown: small tags and cut ends, FN3 domain (Centyrin); tested as E. coli lysate) LPAPKNLVVSRVTEDSARLSWTAPDAAFDSFSILYGEPPALGEAIVLTVPGSERSYDLTGLKPGTEYWVTIYGVKGGVFSHPLSAIFTT
Return: 400
